- Tested on: NL4-3 strain of HIV-1
- method description: Multiple cycle infection assay of CAp24 antigen production
- Assay type: cell-based
- setup conditions: Human immunodeficiency virus 1, NL43, SUP-T1, 96 h, multiple cycle infection with NL4-3 virus, SupT1, MT4 or PBMC, MOI 0.01, day 4 and day −6 post-infection; threshold below 5 μM; read-out: EC50 for antiviral activity (50% inhibition of CA p24 production)
We begin with a simple list: items and their reported EC50.

{"columns": ["structure as smiles", "target desc", "measured value"],
 "data": [
  ["COc1ccc(F)cc1CN(C)C(=O)CCCSc1ccc(O)cc1", "NL4-3 strain of HIV-1", "< 5 µM"]
]}

EC50 value, target or system NL4-3 strain of HIV-1, for `COC(=O)c1ccc(SCCCC(=O)N(C)Cc2cc(F)ccc2OC)cc1` : < 5 µM

EC50 value, target or system NL4-3 strain of HIV-1, for `CN(C(=O)CCCSc1ccc(F)cc1)c1cccc2cccnc12` : < 5 µM

EC50 value, target or system NL4-3 strain of HIV-1, for `CN(Cc1ccccc1N1CCN(CCN2CCOCC2)CC1)C(=O)CCCSc1ccc(O)cc1` : < 5 µM

EC50 value, target or system NL4-3 strain of HIV-1, for `CN(C(=O)CCCSc1ccc(F)cc1)c1cccc2cnccc12` : < 5 µM

* * *

- System: NL4-3 strain of HIV-1
- method description: Multiple cycle infection assay of CAp24 antigen production
- Type: cell-based
- setup conditions: Human immunodeficiency virus 1, NL43, SUP-T1, 96 h, read-out: EC50 for antiviral activity (50% inhibition of CA p24 production)
pEC50: −log10 of the molar value.
observation type: pEC50

pEC50 value, target or system NL4-3 strain of HIV-1, for CN(Cc1ccccc1C1=CCNCC1)C(=O)CCCSc1ccc(O)cc1 [Example 168] : > 5.30

* * *

- Test system: NL4-3 strain of HIV-1
- method description: Multiple cycle infection assay of CAp24 antigen production
- Assay type: cell-based
- setup conditions: Human immunodeficiency virus 1, NL43, SUP-T1, 96 h, multiple cycle infection with NL4-3 virus, SupT1, MT4 or PBMC, MOI 0.01, day 4 and day −6 post-infection; threshold below 5 μM; read-out: EC50 for antiviral activity (50% inhibition of CA p24 production)
observation type: EC50

Example compounds with recorded EC50:
{"columns": ["compound", "EC50"],
 "data": [
  ["COc1ccc(F)cc1CN(C)C(=O)CCCn1ccc2cc(Br)ccc21", "< 5 µM"],
  ["COc1ccc(F)cc1CN(C)C(=O)CCCn1ccc2cc(Cl)ccc21", "< 5 µM"],
  ["COc1ccc(F)cc1CN(C)C(=O)CCCSc1ccc(C)cc1", "< 5 µM"],
  ["COc1ccc([S+]([O-])CCCC(=O)N(C)Cc2cc(F)ccc2OC(C)C)cc1 (stereo not drawn)", "< 5 µM"],
  ["COc1ccc(SCCCC(=O)N(C)Cc2cc(Cl)ccc2OC)cc1", "< 5 µM"]
]}

Per the records, this compound ( `COc1ccccc1CN(C)C(=O)CCCC(=O)c1ccc(F)cc1` ) has EC50 equal to < 5 µM

Per the records, this compound ( `COc1ccc(SCCCC(=O)N(C)Cc2cc(F)ccc2OC)cc1` ) has EC50 equal to < 5 µM

Per the records, this compound ( `COc1ccc(F)cc1CN(C)C(=O)CCCSc1ccc(Cl)cc1` ) has EC50 equal to < 5 µM

Per the records, this compound ( `COc1ccc(F)cc1CN(C)C(=O)CCCn1cc(-c2ccncc2)cn1` ) has EC50 equal to < 5 µM
